target: Follistatin-related protein 3 (Homo sapiens); assay: compounds binding follistatin-related protein 3 – biochemical, small-molecule microarray, 635 nm fluorescence, primary screen (AID 1105); details: FSTL3 binding, higher = more signal;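 further: score merges emission near 667 nm and signal to noise per printed spot across three slides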
Classify by composite z-score. Ranges: bucket A (below -0.1), bucket B (-0.1 to below 0.8), bucket C (0.8 or more)

A selection of reference data follows.
>>> class_name("COC(=O)[C@@]1(Cc2ccc(OC)cc2)[C@H]2c3cc(C(=O)N(C)C)n(CCSCCO)c3C[C@H]2CN1C(=O)c1ccccc1")
"bucket B"
>>> class_name("COC(=O)c1c2oc(c1C(=O)OC)C(=O)N[C@H](Cc1ccccc1)Cn1nncc1C1(CCCCC1)NC(=O)N[C@H](CO)CC2")
"bucket B"
>>> class_name("CCOC(=O)C[C@H]1[C@H](OC(=O)c2ccccc2-c2ccccc2)[C@@H](NC(=O)c2ccc(-c3ccccc3)cc2)c2cc(OCCCO)ccc2N1C(=O)c1ccccc1")
"bucket B"
>>> class_name("CC1CC/C=C\\[C@H]2OC34C=CCN(CCN5CCOCC5)C(=O)[C@H]3N(CCCCCO)C(=O)[C@@H]4C2C(=O)O1 (stereo not given in full)")
"bucket A"
>>> class_name("CCCNC(=O)[C@@]1(C)c2ccccc2C(=O)N(Cc2cc(C(F)(F)F)cc(C(F)(F)F)c2)[C@H]1c1ccc(CO)cc1")
"bucket A"

Looking at CCOC(=O)N1C(c2ccc(OCCCO)cc2)=NC(C(=O)OC)N1C(=O)OCC (stereo not given) , which class would you pick?
bucket C

Looking at `O[C@@H](Cc1ccccc1)[C@@H](/C=C/c1ccccc1)NCc1ccccc1Br` , which class would you pick?
bucket A

Looking at `CC(=O)NCCCC[C@@H]1NC(=O)[C@@H]2C[C@H](C(=O)NCCCCCC[N+](C)(C)C)[C@H](c3cccc(OCCO)c3)N2C1=O` , which class would you pick?
bucket C

Looking at `O=C(N1CCCCC1)[C@]1(CCS(=O)(=O)c2ccccc2)N=C(c2ccc(OCCCO)cc2)O[C@@H]1c1ccccc1` , which class would you pick?
bucket B

Looking at `NC(=O)[C@]1(Cc2ccccc2)N=C(c2ccc(OCCCO)cc2)O[C@@H]1c1ccccc1` , which class would you pick?
bucket A

* * *

target: Carbonic anhydrase 2 (Homo sapiens) (UniProt P00918); experiment: compounds binding carbonic anhydrase 2 – biochemical, small-molecule microarray, Alexa647-labelled CAII, profiling panel (AID 1122); conditions: CAII-A647 binding fluorescence, higher = more signal
Below: a set of entries, each annotated with reported composite z-score.

>>> reported_result("COc1ccc([Si](C)(C)[C@@H]2[C@@H](CCO)O[C@]3(C(=O)N(Cc4ccc(N5C(=O)c6cccc7cccc5c67)cc4)c4ccccc43)[C@H]2C)cc1")
0.382
>>> reported_result("CCOC(=O)C1=CC[C@@H](c2cccc(Cl)c2)N(S(=O)(=O)c2ccc(C)cc2)[C@H]1c1ccc(C#N)cc1")
0.728
>>> reported_result("O=C(NCc1ccccc1)[C@@H]1c2ccccc2C(=O)N(C2CCCCC2)[C@H]1c1ccc(CO)cc1")
0.795

Please indicate composite z-score recorded for `[N-]=[N+]=Nc1ccccc1[C@H]1OC(c2ccc(OCCCO)cc2)=N[C@@]1(CCS(=O)(=O)c1ccccc1)C(=O)N1CCOCC1`
0.522

Please indicate composite z-score recorded for `[N-]=[N+]=NCc1ccccc1C[C@@]1(C(=O)NCc2ccccc2)N=C(c2ccc(OCCCO)cc2)O[C@@H]1c1ccccc1CN=[N+]=[N-]`
0.669

Please indicate composite z-score recorded for CN1C(=O)C2C=CC(C(O)C(C)(C)C)N(Nc3ccccc3)C2C1=O (configuration not stated)
0.847

Please indicate composite z-score recorded for `COC(=O)[C@@]1(Cc2ccc(OC)cc2)[C@H]2c3cc(C(=O)N4CCCC4)n(CCc4ccccn4)c3C[C@H]2CN1C(=O)c1ccccc1`
0.862

* * *

molecular target: Concanavalin-A (Canavalia ensiformis); test: compounds binding concanavalin A lectin – biochemical, small-molecule microarray, Alexa647 label, 635 nm, artefact control for SMM control protein annotation, primary screen (AID 1127); details: ConA-A647 binding fluorescence, higher = more signal;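 further: z combines 667 nm emission intensity with signal-to-noise across three replicate slides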
Everything with composite z-score lower than 0.9 is 0 (no); everything else, including exactly 0.9, is 1 (yes).

A selection of reference data follows.
>>> class_name("CCOC(=O)C1=C[C@@H](C(C)(C)C)N(S(=O)(=O)c2ccc(C)cc2)[C@H]1c1ccc(Cl)c(Cl)c1")
"1 (yes)"
>>> class_name("CC(C)N1C(=O)c2ccccc2[C@](C)(C(=O)NCCCN(C)C)[C@@H]1c1ccc(CO)cc1")
"0 (no)"
>>> class_name("COCCOC(=O)N1C(=O)[C@@]2(c3cc(C#CCC(C(=O)OC)C(=O)OC)ccc31)[C@H](c1ccc(OCCO)cc1)N1[C@H](c3ccccc3)[C@H](c3ccccc3)OC(=O)[C@H]1[C@@H]2C(=O)NC[C@H](O)c1ccccc1")
"1 (yes)"

Moving on to another molecule below.
Check this molecule for composite z-score at or above 0.9: `[N-]=[N+]=Nc1ccccc1C[C@]1(C(=O)N2CCCCC2)N=C(c2ccc(OCCCO)cc2)O[C@H]1c1ccccc1N=[N+]=[N-]`
1 (yes)

* * *

assay: resazurin metabolic signal in HepG2 cells – cell-based, resazurin fluorescence, 24 h, PK04 Diversity Set, profiling panel (AID 1172); settings: HepG2 viability, higher = more signal; further: test concentration not given here
value.kind: z-score

Solved cases below.
>>> reported_result("COc1cc(NN2C(C(O)c3ccccc3)C=CC3C(=O)N(c4ccccc4)C(=O)C32)cc(OC)c1OC (stereo unspecified)")
-1.04
>>> reported_result("C=CC[C@]1(C(=O)O)N=C(c2ccc(OCCCO)cc2)O[C@H]1c1ccccc1CN=[N+]=[N-]")
0.13
>>> reported_result("COC(=O)[C@@]1(Cc2ccc(F)cc2)[C@H]2c3cc(C(=O)N4CCCC4)n(Cc4ccc(Cl)c(C(F)(F)F)c4)c3C[C@H]2CN1C(=O)c1ccccc1")
-1.03
>>> reported_result("C=CCN1Cc2ccccc2C[C@]2(N=C(c3ccc(OCCCO)cc3)O[C@@H]2c2ccccc2)C1=O")
-0.677
>>> reported_result("C=C[C@H](C)[C@H](O)c1ccc(OCCO)cc1")
0.847

Please indicate z-score recorded for CC(C)C(O)C1C=CC2C(=O)N(C)C(=O)C2N1N1CCCCC1 (stereo unspecified)
-0.401

Please indicate z-score recorded for CN1C(=O)C2C(C1=O)C1C=C(c3ccc(CO)cc3)C2C(C2CC2)N1Cc1cc2c(cc1Br)OCO2 (stereo unspecified)
-0.698

Please indicate z-score recorded for `NC(=O)NCC#Cc1ccc2c(c1)[C@]1(C(=O)N2)[C@H](c2ccccc2OCCO)N2[C@H](c3ccccc3)[C@H](c3ccccc3)OC(=O)[C@H]2[C@@H]1C(=O)N1CCCCCCC1`
-0.0969

Please indicate z-score recorded for `Cc1ccc(N2C(=O)c3ccccc3[C@@H](C(=O)NC(C)C)[C@@H]2c2ccc(CO)cc2)nc1`
1.48

Please indicate z-score recorded for `C=C(/C(=C/C[C@@H](OC(=O)c1ccncc1)c1ccc(CO)o1)c1cc(C(=O)OC)ccc1OC)C(C)C`
-0.512

Please indicate z-score recorded for CN1C(=O)C2C=CC(C(O)C(C)(C)C)N(Nc3ccccc3)C2C1=O (stereo unspecified)
-0.376

Please indicate z-score recorded for `[N-]=[N+]=NCc1ccccc1C[C@]1(C(=O)N2CCOCC2)N=C(c2ccc(OCCCO)cc2)O[C@H]1c1ccccc1`
-0.552

Please indicate z-score recorded for `COCCOC(=O)N1C(=O)[C@@]2(c3cc(C#Cc4ccc(OC)cc4)ccc31)[C@H](c1ccc(O)cc1)N1[C@H](c3ccccc3)[C@H](c3ccccc3)OC(=O)[C@H]1[C@@H]2C(=O)N1CCN(c2ncccn2)CC1`
0.202

Please indicate z-score recorded for O=C1C2C=CC(C(O)c3ccc(-c4ccccc4)s3)N(Nc3ccccc3F)C2C(=O)N1c1ccccc1 (stereo unspecified)
-1.5

Please indicate z-score recorded for `Cc1ccc(S[C@]2(C(=O)NCCCN(C)C)CC(=O)N(Cc3ccccc3)[C@@H]2c2ccc(CO)cc2)cc1`
-0.519

Please indicate z-score recorded for `CC(C)N1C(=O)c2ccccc2[C@](C)(C(=O)NCCCN(C)C)[C@@H]1c1ccc(CO)cc1`
0.257

* * *

Below: a set of entries, each annotated with reported composite z-score.
system: Neuregulin-1 EGF-like domain; experiment: small molecules binding NRG1 EGF domain – biochemical, small-molecule microarray, 635 nm fluorescence, primary screen (AID 1081); conditions: higher = more signal;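 further: binding of the protein to compounds printed on small-molecule microarray slides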
Please reply with the number alone, leaving off any unit.

Solved cases below.
>>> reported_result("CCCCN1CC=CC23O[C@@H]4C=CCCOC(=O)C4[C@H]2C(=O)N(CCCO)[C@@H]3C1=O (stereo not given in full)")
-0.053
>>> reported_result("CCCCCN1CC=CC23O[C@@H]4C=CCCOC(=O)C4[C@H]2C(=O)N(CCCO)[C@@H]3C1=O (stereo not given in full)")
0.266
>>> reported_result("O=C1[C@H]2C=C(Br)[C@H](C[C@@H]2OCCOCCO)[C@@]12CO2")
0.437
>>> reported_result("CC(C)N1C(=O)c2ccccc2[C@](C)(C(=O)NCCCN(C)C)[C@@H]1c1ccc(CO)cc1")
1.07
>>> reported_result("CCOC(=O)C[C@H]1[C@H](OC(=O)c2ccc(C(=O)c3ccccc3)cc2)[C@@H](NC(=O)c2ccc3ccccc3n2)c2cc(OCCCO)ccc2N1C(=O)c1ccc2ccccc2n1")
0.421
>>> reported_result("[N-]=[N+]=Nc1ccccc1[C@@H]1OC(c2ccc(OCCCO)cc2)=N[C@]1(CCS(=O)(=O)c1ccccc1)C(=O)O")
0.862
>>> reported_result("O=C1O[C@@H](c2ccccc2)[C@@H](c2ccccc2)N2[C@@H](c3ccccc3OCCO)[C@]3(C(=O)Nc4ccc(C#CC5(O)CCCCCC5)cc43)[C@@H](C(=O)NC[C@H](O)c3ccccc3)[C@H]12")
1.24
>>> reported_result("CC(C)NC(=O)[C@@]1(c2ccc([N+](=O)[O-])cc2)CC(=O)N(C(C)C)[C@@H]1c1ccc(CO)cc1")
0.697
>>> reported_result("CN(C)CCCC[C@@H]1NC(=O)[C@@H]2C[C@H](C(=O)NCCCCCCN)[C@H](c3ccc(O)cc3)N2C1=O")
1.44
>>> reported_result("[N-]=[N+]=NCc1ccccc1[C@@H]1OC(c2ccc(OCCCO)cc2)=N[C@]1(Cc1ccccc1N=[N+]=[N-])C(N)=O")
1.27

Enter composite z-score (test system Neuregulin-1 EGF-like domain) for `C=C(COC)/C(=C/C[C@H](OC(C)=O)c1ccccc1OCCO)c1cnc2ccccc2c1`
1.13

Enter composite z-score (test system Neuregulin-1 EGF-like domain) for CN1C(=O)C2C=CC(C(O)c3ccccc3)N(NC(=O)OC(C)(C)C)C2C1=O (stereo not given)
0.792

Enter composite z-score (test system Neuregulin-1 EGF-like domain) for `COc1ccc(CCNC(=O)[C@@]2(C)c3ccccc3C(=O)N(Cc3ccccc3)[C@H]2c2ccc(CO)cc2)cc1`
1.44

Enter composite z-score (test system Neuregulin-1 EGF-like domain) for `[N-]=[N+]=NCc1ccccc1C[C@@]1(C(=O)NCc2ccccc2)N=C(c2ccc(OCCCO)cc2)O[C@@H]1c1ccccc1CN=[N+]=[N-]`
1.05

Enter composite z-score (test system Neuregulin-1 EGF-like domain) for CC(=O)n1cc(C(O)C2C=CC3C(=O)N(c4ccccc4)C(=O)C3N2Nc2ccc(C#N)cc2)c2ccccc21 (stereo not given)
1.29
